Target: T1, Canine IL-31RA ECD-10His (canine)
T1 construct: made in HEK-293 or CHO cells and coated on the ELISA plates; also called canine IL-31 receptor alpha extracellular domain HIS-tagged protein; cIL-31RA
T1 chain: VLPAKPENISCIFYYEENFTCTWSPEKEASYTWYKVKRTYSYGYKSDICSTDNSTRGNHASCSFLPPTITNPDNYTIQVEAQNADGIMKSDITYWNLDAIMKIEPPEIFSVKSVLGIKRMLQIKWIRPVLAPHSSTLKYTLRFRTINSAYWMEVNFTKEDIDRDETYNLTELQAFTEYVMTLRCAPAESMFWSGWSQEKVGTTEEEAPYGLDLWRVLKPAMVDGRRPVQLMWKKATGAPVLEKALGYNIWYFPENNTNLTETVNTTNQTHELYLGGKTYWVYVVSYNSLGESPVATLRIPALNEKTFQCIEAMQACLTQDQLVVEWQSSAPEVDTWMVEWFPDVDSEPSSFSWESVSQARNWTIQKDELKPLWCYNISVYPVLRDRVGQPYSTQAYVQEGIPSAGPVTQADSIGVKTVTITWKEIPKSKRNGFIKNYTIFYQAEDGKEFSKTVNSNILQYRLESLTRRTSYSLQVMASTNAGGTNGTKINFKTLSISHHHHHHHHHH
Test: ELISA (FIG. 6A)

| Binder | binding result |
| --- | --- |
| caninized 10A12VH2VL6 (antibody, V domains shown, Caninized antibody, canine IgG-Bm heavy chain and canine lambda light chain; also called c10A12; c10A12VH2-cIgGBm + c10A12VL6-cCL) VH: EVQLVESGGDLVKPGGSLRLSCAASGFTFSNYYMAWVRQAPGKGLQWVASISTGGGNTYYRDSVKGRFTISRDNAKNTLYLQMNSLRAEDTAMYYCARHGTLYFDYWGQGTLVTVSS VL: QPVLTQPPSLSASLGTTARLTCERSSGDIGDSYVSWYQQKPGSPPRDVIYVDDQRPSEVSKSFSGSKDTSANAGLLLISGLQPEDEADYFCQSYDSNIDGPVFGGGTHLTVLG | binds |
| caninized 10A12VH2VL5 (antibody, V domains shown, Caninized antibody, canine IgG-Bm heavy chain and canine lambda light chain; also called c10A12VH2-cIgGBm + c10A12VL5-cCL) VH: EVQLVESGGDLVKPGGSLRLSCAASGFTFSNYYMAWVRQAPGKGLQWVASISTGGGNTYYRDSVKGRFTISRDNAKNTLYLQMNSLRAEDTAMYYCARHGTLYFDYWGQGTLVTVSS VL: QPVLTQPPSLSASLGTTARLTCERSSGDIGDSYVSWYQQKPGSPPRDLLYVDDQRPSGVSKSFSGSKDTSANAGLLLISGLQPEDEADYYCQSYDSNIDGPVFGGGTHLTVLG | binds |
| caninized 10A12VH1VL5 (antibody, V domains shown, Caninized antibody, canine IgG-Bm heavy chain and canine lambda light chain; also called c10A12VH1-cIgGBm + c10A12VL5-cCL) VH: EVQLVESGGDLVKPGGSLRLSCVASGFTFSNYYMAWVRQAPGKGLQWVASISTGGGNTYYRDSVKGRFTISRDNAKNTLYLQMNSLRAEDTAMYYCAKHGTLYFDYWGQGTLVTVSS VL: QPVLTQPPSLSASLGTTARLTCERSSGDIGDSYVSWYQQKPGSPPRDLLYVDDQRPSGVSKSFSGSKDTSANAGLLLISGLQPEDEADYYCQSYDSNIDGPVFGGGTHLTVLG | binds |
